- assay.details: qHTS Validation assay for Inhibitors of Plasmodium falciparum Dd2 growth in vitro; also: nearly all actives have a fitted effect of over 70% in size
- study.conditions: P. falciparum Dd2 in RBCs, SYBR Green growth, 72 h; series mostly up to 28.7 µM
Screen size: about 4,100 compounds; about 1,600 (39%) were called active. Roughly 25% stayed inconclusive and do not appear here. Calls follow the shape of the dose curve; as a rule, active = well fitted inhibition curve with a large enough effect; inconclusive = small, poorly fitted or top-dose-only effect; inactive = no such curve, though single readings can be large or run the other way. Some of the results follow.
Write down the outcome that applies. Available outcomes: active, inactive

Dear all, I need the recorded test outcome for CC(Oc1ccc(F)cc1)C(=O)Nc1cc(Cl)ccc1-n1cncn1 (stereo not given) , thank you.
active

Dear all, I need the recorded test outcome for `COCCCNc1nc2cc(OC)c(OC)cc2c2nc(-c3ccccc3)nn12` , thank you.
active

Dear all, I need the recorded test outcome for `CCc1ccc(NC(=O)C2CCN(C(=O)c3nnn4cc(C)[nH]c(=O)c34)CC2)cc1` , thank you.
inactive

Dear all, I need the recorded test outcome for CCCC(C)C(=O)Nc1ncc(S(=O)(=O)c2ccc([N+](=O)[O-])cc2)s1 (stereo not given) , thank you.
active

Dear all, I need the recorded test outcome for CCCOc1cccc(C2c3c(oc4ccc(F)cc4c3=O)C(=O)N2Cc2ccc3c(c2)OCO3)c1 (stereo not given) , thank you.
inactive

Dear all, I need the recorded test outcome for `CC(=O)Nc1ccc(CN2CCn3c(nn(-c4ccc(Cl)cc4)c3=O)C2)cc1` , thank you.
inactive

Dear all, I need the recorded test outcome for `O=C(c1ccc2c(c1)OCO2)N1CCC2(CC1)COc1ccccc1CN2` , thank you.
active

Dear all, I need the recorded test outcome for `Cc1ccccc1C(=O)N1CCC2(CC1)NC(=O)N(c1ccc(F)cc1)N2` , thank you.
inactive

Dear all, I need the recorded test outcome for CCc1noc(-c2cn(C3CCCN(C(=O)c4ccc5c(c4)OCO5)C3)nn2)n1 (stereo not given) , thank you.
inactive

Dear all, I need the recorded test outcome for `COc1ccc(C(=O)N2CCC3(CC2)CC(C(C)C)=NO3)cc1` , thank you.
inactive

Dear all, I need the recorded test outcome for `CC(=O)Nc1ccc(CN2CCc3nc(C(C)C)nc(-c4ccc(Cl)cc4)c3CC2)cc1` , thank you.
active

Dear all, I need the recorded test outcome for `Cc1noc2c(NC3CCN(C)CC3)cc(-c3cccc(C(F)(F)F)c3)nc12` , thank you.
active

Dear all, I need the recorded test outcome for O=C(c1ccccc1F)N1CCCC2(C1)NC(=O)N(Cc1cccc(Cl)c1)C2=O (stereo not given) , thank you.
inactive

Dear all, I need the recorded test outcome for `Cc1nc(-c2c3n(c(=O)n(Cc4ccc(OC(F)(F)F)cc4)c2=O)CCCCC3)no1` , thank you.
inactive

Dear all, I need the recorded test outcome for `O=C(c1ccccc1-c1ncc[nH]1)N1CC[C@@H](c2ccc3c(c2)OCO3)[C@H](O)C1` , thank you.
inactive

Dear all, I need the recorded test outcome for `CCOCCCNc1nc2cc(OC)c(OC)cc2c2nc(-c3ccccc3)nn12` , thank you.
active

Dear all, I need the recorded test outcome for `O=C(Nc1cccc(-c2nnc3n2CCCC3)c1)c1ccoc1` , thank you.
inactive

Dear all, I need the recorded test outcome for `Cc1nc2c(c(-c3ccc(O)cc3)n1)CN(C(=O)c1cccc(Cl)c1)CC2` , thank you.
inactive

Dear all, I need the recorded test outcome for COc1ccc(C2c3ccc(O)cc3Oc3ncn4nc(-c5ccncc5)nc4c32)cc1OC (stereo not given) , thank you.
active

Dear all, I need the recorded test outcome for `COc1cccc(NC(=O)[C@@H]2C[C@H](c3cccc(C(F)(F)F)c3)N(Cc3cnn(C)c3)C2)c1` , thank you.
inactive

Dear all, I need the recorded test outcome for CC(Oc1ccc(F)cc1)C(=O)Nc1cc(C(F)(F)F)ccc1-n1cncn1 (stereo not given) , thank you.
active

Dear all, I need the recorded test outcome for `O=C(c1ccsc1)N1CCN(c2nnc3ccc(C(F)(F)F)cn23)CC1` , thank you.
inactive

Dear all, I need the recorded test outcome for `Cc1ccc(C)c(NC(=O)CN(C)C(=O)c2cc3ccccc3o2)c1` , thank you.
active

Dear all, I need the recorded test outcome for `Cc1ccc(-c2cn3cccnc3n2)cc1NC(=O)Cc1ccccc1` , thank you.
inactive

Dear all, I need the recorded test outcome for `CC(C)=NOC(=O)c1c(C)noc1-c1snnc1C` , thank you.
active
